# test: protein stability index of a GFP-peptide fusion (GPS, HEK-293T) (PSI 1-6); higher = more stable;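 further: 24-mer peptide tiles fused after GFP, lentivirally expressed, FACS-sorted into six equal bins by GFP/DsRed ratio, decoded by Illumina sequencing, PSI is the read-weighted mean bin number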
# assay setup: treatment: MLN4924 1 uM, 8 h; c terminus: a fixed tail appended
Rule: T for protein stability index not less than 3, F for anything less.

residue codes	category label
TFFEVSPLCNFNVIESFTELSRIV [RAB40C]	F
LSALDSKANNLSSLSKKYRQDAKY [SEC22B]	T
GTEYTCKVYPVQEALAVLEPYARL [TRIB3]	F
PSGEMVKSTTSLTSSSTSGSSDKV [MLH1]	T
VRSGIVEYLSLVKGGQDVKKKVHL [PRIM1]	F
EKNNHRAKDLRAPPEQGKIFIARR [SOAT1]	T
AFCALVHSFFPDAFDYNSLSPTQR [SMTNL2]	F
EQPITDFCSVIRINSTAPFEEQEN [ZNF277]	T
AVDFTQEEWGQLDPTQRILYRDVM [ZNF8]	T
TRHYRPPEVILELGWAQPCDVWSI [CLK3]	F
FEHEMEESKKNRVEINDLDPEVFK [SPOPL]	T
EEMAVVPQGLFRGGKSGELEQEEE [CHGA]	T
SDKEIVAEAERLDVKAMGPLVLTE [EIF5]	T
RGLRGPNLTSPASITFTTGLEAPR [TNXB]	T
KSFSMAKGLNARMMRGLSYSLTTS [RAB40A]	F
PEGKRVPKRLRCWEEEEDHEKERP [FANCE]	T
AILGEQRPRQRQRVYPKCTWLTTP [TCF25]	F
ARLRHQELFRLRGIKAQVALRLAE [NOP53]	F
DPEVLEAVGDRQDGLREQLQAPVP [PBXIP1]	T
TRGKRESESRGSSGRVKRERDRER [USP39]	T
VILIFHCEFSSERGPRMCRFIRER [CDC25B]	F
TEWACILRRKTPRHKQPTLLMVRA [C6orf223]	F
DPLSTNYSLAPNTPINQNVSLHQA [NFE2L1]	T
LTVVSFYQVAALQGDLASLRAELQ [TNFSF13B]	F
MDRKTRFIIHGFIDKGDESWVTDM [PNLIPRP1]	F
IVKQQDPLVYKAIQQGINAVNQEA [ACSBG2]	T
VGNNHESWGWDLGRNRLYHDGKNQ [SPSB1]	T
KAEGGEEDSLGCLTADTKEVTASQ [IRX6]	T
ESLIVFMEQVHRGIKGLVRDSHGK [CPXM2]	F
VRVVFFPLFSNWWIQVTSLRIFVW [PHTF1]	F
DRNTKRDVTLEASRESSKPRAVLK [PPP2R2C]	T
GDKNEEQVLNAIEAYTEHRPEITS [ZER1]	T
KGFIQKGNLNIHQRTHTGEKPYGC [ZNF649]	T
QLVRYSADGLLQLGPLGSTAFLPD [GALNT9]	F
RNQVVSSTNGELNVDDPTGAHSNA [CSNK1G1]	T
NDLWPTMENLLQATKSHVDKVIMK [DYNC2LI1]	T
LIHVYLPLTSHILRAFVNSQIQGH [SNX8]	T
SPRDEYKPLDLSDSTLSYTETEAT [SMAD6]	T
HGVRAKVQPQARKKEMEMRQLQRG [CPN1]	T
TTPLSPTRLSRLQEKEELRELNDR [LMNB1]	T
VKVLAFTSIGDGPLSSDIQVITQT [PTPRD]	F
LSLFIPESPRWLYSQGRLSEAEEA [SLC22A15]	T
MTLAYDNGINLFDTAEVYAAGKAE [KCNAB2]	T
TVASEAKIQLSDSEAKSHSSADDA [FAN1]	T
IRDIRRRGKNKMAAQNCRKRKLDT [NFE2L1]	T
KIRKIHTQRQYKEDESQSEEENDY [CEP70]	T
WVGFDDVESFKTKVSYLKQKGLGG [CHIT1]	F
ARAFAEKNNLSFIETSALDSTNVE [RAB11B]	T
PNLNETSIVSGGYGGSGDGLIPTG [ARFIP2]	T
KERLKPAHIHLQQLTCFSITCSST [KRT34]	F
MAEAEGVPTTPGPASGSTFRGRRD [RETREG3]	T
